# target_of_assay: Phosphoglycerate mutase 1 (Homo sapiens, UniProt P18669)
# Sequence (P18669 whole entry): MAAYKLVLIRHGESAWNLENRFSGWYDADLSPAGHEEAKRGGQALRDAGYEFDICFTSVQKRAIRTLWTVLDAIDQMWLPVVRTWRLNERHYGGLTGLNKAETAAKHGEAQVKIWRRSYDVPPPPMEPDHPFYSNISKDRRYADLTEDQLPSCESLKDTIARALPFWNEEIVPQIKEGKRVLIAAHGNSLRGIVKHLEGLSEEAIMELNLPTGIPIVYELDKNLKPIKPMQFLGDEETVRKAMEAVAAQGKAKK
# protocol_details: Inhibition of PGAM1 in human MDA-MB-231 cells using 3-PGA as substrate after 2 hrs in by UV-vis spectrophotometric method
# Format: cell-based
recorded_metric: pIC50
The value called pIC50 is obtained by taking minus log10 of the concentration in mol/L.

Param readout= pIC50; system= Phosphoglycerate mutase 1 (Homo sapiens, UniProt P18669); entry= `C#CCCCC(=O)OC(C)(C)[C@H]1CC[C@]2(CO2)[C@@H](OC(=O)N[C@@H](Cc2c[nH]c3ccccc23)C(=O)OCc2ccccc2)C1` ; returns value.
4.48

###

# Species on record: Homo sapiens
# protocol_details: Inhibition of enolase (unknown origin) at 5 uM using 2-PG relative to control
recorded_metric: inhibition

Any idea what its inhibition is? The compound is `Cc1ccc(S(=O)(=O)Nc2cc3oc4cccc(O)c4c(=O)c3c(O)c2O)cc1`
2%

What does the record list as inhibition for `O=c1c2c(O)cccc2oc2cc(NS(=O)(=O)c3ccccc3)c(O)c(O)c12` ?
6%

Using the record for `O=c1c2c(O)cccc2oc2cc(NS(=O)(=O)c3ccc(I)cc3)c(O)c(O)c12` , report its inhibition.
11%

Which inhibition is reported for this compound? `O=c1c2c(O)cccc2oc2cc(NS(=O)(=O)c3cc(C(F)(F)F)ccc3C(F)(F)F)c(O)c(O)c12`
2%

# input compound: `O=c1c2c(O)cccc2oc2cc(NS(=O)(=O)c3ccc(Cl)cc3)c(O)c(O)c12` ; wanted: its inhibition
15%

Could you tell me which inhibition is on file for `O=c1c2c(O)cccc2oc2cc(NS(=O)(=O)c3ccc(N4CCCC4)cc3)c(O)c(O)c12` ?
4%

I am curious: what inhibition value has been reported for `O=c1c2c(O)cccc2oc2cc(NS(=O)(=O)c3ccc4ccccc4c3)c(O)c(O)c12` ?
9%

Endpoint output: inhibition of `O=c1c2c(O)cccc2oc2cc(NS(=O)(=O)c3ccc(F)cc3)c(O)c(O)c12` . Value?
1%

May I ask what inhibition has been recorded for `O=c1c2c(O)cccc2oc2cc(NS(=O)(=O)c3ccc(N4CCCCC4)cc3)c(O)c(O)c12` ?
5%

Would you mind telling me what inhibition value was observed for `O=c1c2c(O)cccc2oc2cc(NS(=O)(=O)c3cccc(OC(F)(F)F)c3)c(O)c(O)c12` ?
12%

So what does the record say about inhibition for `O=c1c2c(O)cccc2oc2cc(NS(=O)(=O)c3ccc(C(F)(F)F)cc3)c(O)c(O)c12` ?
-1%

###

# Tested on: NCI-H1299
# protocol_details: Antiproliferative activity against human H1299 cells after 72 hrs by MTT assay
# Assay type: functional, cell-based
# condition_context: NCI-H1299, 72 h
recorded_metric: pIC50
Reminder that pIC50 means the negative base-10 logarithm of the concentration expressed in mol/L.

Requested field: pIC50. Item: `O=c1c2c(O)cccc2oc2cc(NS(=O)(=O)c3ccc4ccccc4c3)c(O)c(O)c12`
4.65

Param item = `O=c1c2c(O)cccc2oc2cc(NS(=O)(=O)c3ccc(N4CCCC4)cc3)c(O)c(O)c12` ; retrieve measured pIC50.
5.30

Query: pIC50; subject: `O=c1c2c(O)cccc2oc2cc(NS(=O)(=O)c3ccc(-c4ccccc4)cc3)c(O)c(O)c12`
4.89

May I ask what pIC50 has been recorded for `O=c1c2c(O)cccc2oc2cc(NS(=O)(=O)c3ccc(C4CCCCC4)cc3)c(O)c(O)c12` ?
4.97

What does the data say about its pIC50? Entry: `O=c1c2c(O)cccc2oc2cc(NS(=O)(=O)c3cccc(OC(F)(F)F)c3)c(O)c(O)c12`
4.86

Could you tell me which pIC50 is on file for `O=c1c2c(O)cccc2oc2cc(NS(=O)(=O)c3cccc4ccccc34)c(O)c(O)c12` ?
4.63

Tell me the measured pIC50 of `O=c1c2c(O)cccc2oc2cc(NS(=O)(=O)Cc3ccccc3)c(O)c(O)c12` , please.
4.20

Sample `O=c1c2c(O)cccc2oc2cc(NS(=O)(=O)c3ccc(N4CCCCC4)cc3)c(O)c(O)c12` — what was its pIC50?
5.09

# lookup: pIC50 of `N#Cc1cccc(S(=O)(=O)Nc2cc3oc4cccc(O)c4c(=O)c3c(O)c2O)c1`
4.28

// returns reported pIC50 for input `O=c1c2c(O)cccc2oc2cc(NS(=O)(=O)c3ccc(F)cc3)c(O)c(O)c12`
4.66

For the compound shown here, `O=c1c2c(O)cccc2oc2cc(NS(=O)(=O)c3ccc(I)cc3)c(O)c(O)c12` , give the reported pIC50.
4.61

Any idea what pIC50 was measured for `O=c1c2c(O)cccc2oc2cc(NS(=O)(=O)c3ccc(Cl)cc3)c(O)c(O)c12` ?
4.99

Which pIC50 value is on record for `O=c1c2c(O)cccc2oc2cc(NS(=O)(=O)c3ccccc3)c(O)c(O)c12` ?
4.23

I'd like to know its pIC50. The compound in question is `O=c1c2c(O)cccc2oc2cc(NS(=O)(=O)c3cc(C(F)(F)F)ccc3C(F)(F)F)c(O)c(O)c12`
4.77

Recorded pIC50 of `Cc1ccc(S(=O)(=O)Nc2cc3oc4cccc(O)c4c(=O)c3c(O)c2O)cc1` , please.
4.88

What pIC50 value was documented for this compound, `O=c1c2c(O)cccc2oc2cc(NS(=O)(=O)c3ccc(C(F)(F)F)cc3)c(O)c(O)c12` ?
4.99

Requested read-out: pIC50. Entry: `CC(C)(C)c1ccc(S(=O)(=O)Nc2cc3oc4cccc(O)c4c(=O)c3c(O)c2O)cc1`
4.97

###

# target_of_assay: L-lactate dehydrogenase (Homo sapiens) (UniProt V9HWB9)
# protocol_details: Inhibition of LDH (unknown origin) at 5 uM using 2-PG relative to control
recorded_metric: inhibition
Please state the value followed by its unit.

What value of inhibition has been reported for the following compound? `O=c1c2c(O)cccc2oc2cc(NS(=O)(=O)c3ccc(Br)cc3)c(O)c(O)c12`
6%

Recorded inhibition of `Cc1ccc(S(=O)(=O)Nc2cc3oc4cccc(O)c4c(=O)c3c(O)c2O)cc1` , please.
2%

Entry `O=C1c2ccccc2C(=O)c2c1cc(S(=O)(=O)Nc1ccc(C(F)(F)F)cc1)c(O)c2O` : reported inhibition = ?
38%

Name the recorded inhibition for `O=c1c2c(O)cccc2oc2cc(NS(=O)(=O)c3ccc(C(F)(F)F)cc3)c(O)c(O)c12` .
-1%

Quick one: inhibition for `CC(C)(C)c1ccc(S(=O)(=O)Nc2cc3oc4cccc(O)c4c(=O)c3c(O)c2O)cc1` ?
1%

Could you tell me which inhibition is on file for `O=c1c2c(O)cccc2oc2cc(NS(=O)(=O)c3ccc(C4CCCCC4)cc3)c(O)c(O)c12` ?
9%

Could you share which inhibition value was measured for `O=c1c2c(O)cccc2oc2cc(NS(=O)(=O)c3ccccc3)c(O)c(O)c12` ?
6%

# get_value(readout='inhibition', item= `N#Cc1ccc(S(=O)(=O)Nc2cc3oc4cccc(O)c4c(=O)c3c(O)c2O)cc1` )
10%

Endpoint output: inhibition of `O=c1c2c(O)cccc2oc2cc(NS(=O)(=O)c3ccc(N4CCCCC4)cc3)c(O)c(O)c12` . Value?
5%

###

# target_of_assay: Phosphoglycerate mutase 1 (Homo sapiens)
# protocol_details: Inhibition of recombinant PGAM1 (unknown origin) using 3-PG as substrate preincubated for 2 mins followed by substrate addition
recorded_metric: IC50

Quick one: IC50 of `COc1c(NS(=O)(=O)c2cccc3ccccc23)cc2oc3cccc(OC)c3c(=O)c2c1O` ?
> 20000 nM

// returns reported IC50 for input `COc1c(NS(=O)(=O)c2ccc(-c3ccccc3)cc2)cc2oc3cccc(OC)c3c(=O)c2c1O`
> 20000 nM

Consider the molecule `O=c1c2c(O)cccc2oc2cc(NS(=O)(=O)c3ccc(I)cc3)c(O)c(O)c12` and give its measured IC50.
1900 nM

Which measured IC50 value corresponds to `COc1c(NS(=O)(=O)c2ccc(C(C)(C)C)cc2)cc2oc3cccc(OC)c3c(=O)c2c1O` ?
> 20000 nM

Which IC50 value is on record for `O=c1c2c(O)cccc2oc2cc(NS(=O)(=O)Cc3ccccc3)c(O)c(O)c12` ?
1900 nM

Find the recorded IC50 belonging to `COc1c(NS(=O)(=O)c2ccc(C)cc2)cc2oc3cccc(OC)c3c(=O)c2c1O` and report it.
> 20000 nM

Fill in: IC50 of `O=c1c2c(O)cccc2oc2cc(NS(=O)(=O)c3ccc(N4CCCCC4)cc3)c(O)c(O)c12` is ___
1000 nM

GET /values?readout=IC50&item= `O=c1c2c(O)cccc2oc2cc(NS(=O)(=O)c3ccc(Cl)cc3)c(O)c(O)c12`
3600 nM

Any idea what its IC50 is? The molecule is `COc1c(NS(=O)(=O)c2ccc(C(F)(F)F)cc2)cc2oc3cccc(OC)c3c(=O)c2c1O`
> 20000 nM

Entry `O=c1c2c(O)cccc2oc2cc(NS(=O)(=O)c3ccc4ccccc4c3)c(O)c(O)c12` : reported IC50 = ?
1600 nM
